system: OVCAR-5 complex spheroids with HUVEC/MSC, viability, % test/control; assay: Anticancer human tumor OVCAR-5 cell line growth inhibition [AhR]; conditions: second compound 0.316 µM; first compound 0.03 µM; active compounds read low;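 also: spheroids exposed to compounds for 7 days; 100% = DMSO vehicle control wells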
Reported viability, T/C by item:
endpoint-label: viability, T/C (%)

compound="CCc1c2c(nc3ccc(O)cc13)-c1cc3c(c(=O)n1C2)COC(=O)[C@]3(O)CC + Cc1cncc(-c2nc(NCCc3c[nH]c4ccccc34)c3ncn(C(C)C)c3n2)c1" reported_value=42.3
compound="Nc1ncn(C2CC(O)C(CO)S2)c(=O)n1 (stereo not given) + Cc1cncc(-c2nc(NCCc3c[nH]c4ccccc34)c3ncn(C(C)C)c3n2)c1" reported_value=93.1
compound="O=C(C=Cn1cnc(-c2cc(C(F)(F)F)cc(C(F)(F)F)c2)n1)NNc1cnccn1 + Cc1cncc(-c2nc(NCCc3c[nH]c4ccccc34)c3ncn(C(C)C)c3n2)c1" reported_value=109
compound="O=C(C=Cn1cnc(-c2cc(C(F)(F)F)cc(C(F)(F)F)c2)n1)NNc1cnccn1 + Cc1ccccc1N=Nc1ccc(NC(=O)c2ccnn2C)c(C)c1" reported_value=109
compound="CCN(c1cc(-c2ccc(CN3CCOCC3)cc2)cc(C(=O)NCc2c(C)cc(C)[nH]c2=O)c1C)C1CCOCC1 + Cc1cncc(-c2nc(NCCc3c[nH]c4ccccc34)c3ncn(C(C)C)c3n2)c1" reported_value=100
compound="CCN(c1cc(-c2ccc(CN3CCOCC3)cc2)cc(C(=O)NCc2c(C)cc(C)[nH]c2=O)c1C)C1CCOCC1 + CC(CO)NC(=O)c1cc(-c2ccc(Cl)cc2)nn(-c2cnn(C)c2)c1=O" reported_value=117
compound="CCc1c2c(nc3ccc(O)cc13)-c1cc3c(c(=O)n1C2)COC(=O)[C@]3(O)CC + CC(CO)NC(=O)c1cc(-c2ccc(Cl)cc2)nn(-c2cnn(C)c2)c1=O" reported_value=32.8
compound="Nc1ncn(C2CC(O)C(CO)S2)c(=O)n1 (stereo not given) + CC(CO)NC(=O)c1cc(-c2ccc(Cl)cc2)nn(-c2cnn(C)c2)c1=O" reported_value=105
compound="CC(C)CC(NC(=O)C(Cc1ccccc1)NC(=O)c1cnccn1)B(O)O (stereo not given) + Cc1ccccc1N=Nc1ccc(NC(=O)c2ccnn2C)c(C)c1" reported_value=67.1
compound="CCN(c1cc(-c2ccc(CN3CCOCC3)cc2)cc(C(=O)NCc2c(C)cc(C)[nH]c2=O)c1C)C1CCOCC1 + Cc1ccccc1N=Nc1ccc(NC(=O)c2ccnn2C)c(C)c1" reported_value=109
compound="Nc1ncn(C2CC(O)C(CO)S2)c(=O)n1 (stereo not given) + Cc1ccccc1N=Nc1ccc(NC(=O)c2ccnn2C)c(C)c1" reported_value=106
compound="O=C(C=Cn1cnc(-c2cc(C(F)(F)F)cc(C(F)(F)F)c2)n1)NNc1cnccn1 + CC(CO)NC(=O)c1cc(-c2ccc(Cl)cc2)nn(-c2cnn(C)c2)c1=O" reported_value=110
compound="CC(C)CC(NC(=O)C(Cc1ccccc1)NC(=O)c1cnccn1)B(O)O (stereo not given) + CC(CO)NC(=O)c1cc(-c2ccc(Cl)cc2)nn(-c2cnn(C)c2)c1=O" reported_value=39.1
compound="CCc1c2c(nc3ccc(O)cc13)-c1cc3c(c(=O)n1C2)COC(=O)[C@]3(O)CC + Cc1ccccc1N=Nc1ccc(NC(=O)c2ccnn2C)c(C)c1" reported_value=37
compound="CC(C)CC(NC(=O)C(Cc1ccccc1)NC(=O)c1cnccn1)B(O)O (stereo not given) + Cc1cncc(-c2nc(NCCc3c[nH]c4ccccc34)c3ncn(C(C)C)c3n2)c1" reported_value=72.1
